# Target Or System: RNA polymerase core enzyme;sigma32 L253A (E. coli;E. coli, UniProt P0A7Z4;P0A8V2;P0A8T7;P0A800;P0AGB3 1-329;1-1342;1-1407;1-91;1-284, |L253A)
# Measurement Protocol: fluorescence polarization; apparent Kd; FP: 10 mM Tris-HCl pH 7.7, 100 mM NaCl, 1 mM DTT, 1% glycerol, 0.025% Tween-20, 5 nM DNA, 10-320 nM holoenzyme, room temperature, 5 min; stopped-flow: 10 mM Tris-HCl pH 7.7, 20 mM NaCl, 10 mM MgCl2, 1 mM DTT
# Conditions: protein: recombinant;recombinant; tags: ;His tag (pET28a, Ni-NTA); chain copies: 2;1;1;1;1; blunt
Measurement Type: pKd
Conceptually, pKd converts a concentration in mol/L into minus its log10.

Q: I would be grateful if you could share the reported pKd for short -35 element DNA (dsDNA) DNA 1: CCTTGAAGACGTGG DNA 2: CCACGTCTTCAAGG .
Result: 7.41
